Origin of measurements: paper PMC12652692

Items are presented alongside their recorded activity at 10 µM.
Test system: HT29
procedure details: NCI60 one-dose screen
Format: cell-based
settings: Homo sapiens, HT-29; HT29, 10 μM; read-out: Growth percent
Report the figure in % without appending any unit label.

compound	tested target	endpoint name	reading unit	observed measurement
O=c1cc(-c2ccccc2)oc2cc(O)cc(O)c12 [compound 2, 5,7-dihydroxyflavone, reference compound]	HT29	activity at 10 µM	%	103

Entry COc1ccc([P+](CCCCOc2cc(O)c3c(=O)cc(-c4ccccc4)oc3c2)(c2ccc(OC)cc2)c2ccc(OC)cc2)cc1 [3c] — recorded activity at 10 µM = -82.8

Entry O=c1cc(-c2ccccc2)oc2cc(OCCCC[P+](c3ccccc3)(c3ccccc3)c3ccccc3)cc(O)c12 [3a] — recorded activity at 10 µM = -65

Entry COc1c(C)cc([P+](CCCCOc2cc(O)c3c(=O)cc(-c4ccccc4)oc3c2)(c2cc(C)c(OC)c(C)c2)c2cc(C)c(OC)c(C)c2)cc1C [3f] — recorded activity at 10 µM = -72.7
